Test system: MS2 coat protein
Assay: apparent KD of MS2 coat protein; higher = weaker reporter binding
Details: Eterna round: R107; input ligand: none
measured-parameter: apparent KD of MS2 coat protein

Solved cases (2 shown):
monomer-sequence	system-under-test	result
GGGCAAGGUGCCGCCUUCGCCCACUGAGAAGGAGCGCAGGGUACUGCAGGUAGGUCGCUCAGACAUGAGGAUCACCCAUGUAGGA [Esislees]	MS2 coat protein	54.5 nM
GGUCGCCAACAUGGGUCGGUGAAAUGGGAAGGAGCGAGCGAGAGCUCAGGUAGGUCGCCCAAACAUGAGGAUCACCCAUGUAAUA [SSArg-A #28 UUU adds V2]	MS2 coat protein	125 nM

Which apparent KD of MS2 coat protein is reported for this sequence? UGUAUGUGAUCUGAUACCAGUCCAACUGGUAAAAGAUGAGGAUCACCCAUCUAAAAUUGGGACCCUUGGCAGCAGAUCGCAUACU 264 nM

Would you kindly share the measured apparent KD of MS2 coat protein for UGUAUGUGAUUUGAUACCAGACCAGCUGGUGUUACAAGAGGAUCACCCUUGUAGGUUUGGGUCCCUUGGCAGCAAAUCGCAUACU [SS Theo B #24 Ms4] ? 136 nM

Sample GCUGUACCAUGAAGGAGCGUCACGGAGUGCGAAUACACAUGAGGAUCACCCAUGUUUUUAUGGCAGGUAGGUCGCAUGGUACAGC [#02 Same State - Arginine B] — what was its apparent KD of MS2 coat protein? 22.3 nM

What does the data say about its apparent KD of MS2 coat protein? Entry: ACAUGGGUCUGAAGGAGCGCGAUAACAUGAGGAUCACCCAUGUAAAAUGGAACAUGAUAAUCGCAGGUAGGUCGCAGUAAAACCC [Same State Arginine B GF 11] 303 nM

Form field: reported apparent KD of MS2 coat protein of ACAUGAAGAACAGCGGUGGGCGCGCUCGAUACCAGUAUUUUAAAUUACCCUUGGCAGCGACAUGAGGAUCACCCAUGUGAGAUGA [XTheo A #5] 18.1 nM

Returns the measured apparent KD of MS2 coat protein for the input sequence. Input: ACAUGAGGAUCACCCAUGUCAGGGCACGAUACCAGCUGAUCCGGUGGCCCUUGGCAGCGUGACGUGUGGUCAUGAGGAUCACCCG [wsmullin] 520 nM

Report apparent KD of MS2 coat protein for CAGGUUAGGGCGGCCGCCACUGUGGCUACGGUACAUGAGGAUCACCCAUGUUUGUGGUUGAUCUACAGGACCGGGCCCUGACACG [Matidier] please. 236 nM

Would you mind telling me what apparent KD of MS2 coat protein value was observed for UGAGAGGGCAGAAGGAGCGACAUGAGGAUCACCCAUGUCUCCCGUUAUGGGAGUUCUUUAGGUCAGGUAGGUCGCUGGCCUCUCA [#1 Exclusion - Arginine B Attempt #9 (Inspired by Omei)] ? 117 nM

// query apparent KD of MS2 coat protein value for entry AAUAAUAAGGCGGCCGCCACUAAACAUGAGGAUCACCCAUGUCUCGCGGGCUUGCGUUGGGAAAGUAGGACCGGGCCAAUAAUAA [Exclusion - Tryptophan B (Freestyle 8)] 15.7 nM

Item UGUAUGGACUGAAGGAGCGGGUAAUAAACCUGAGGAUCACCCAGGUAAUAGGCGAAAGCCACCCAGGUAGGUCGCAGUCCAUACU has what recorded apparent KD of MS2 coat protein? 14.1 nM

###

System: MS2 coat protein
Assay: apparent KD of MS2 coat protein, switch OFF state (with FMN for OFF switches, without FMN for ON switches); designed switch direction (-1 OFF switch, 1 ON switch): -1; higher = weaker reporter binding
Conditions: FMN input: 0 or 200 uM; Eterna round: R93 (includes R88 designs)
measured-parameter: apparent KD of MS2 coat protein (nM)
Enter your answer as a number in nM; do not include the unit.

Solved entries (count: 3):
>>> df
                           monomer_sequence  system_under_test               measured_parameter  units_label  quantitative_readout
0  GAGAGGGCAGGAUAUGCGGAGAGAGAGAGAGAGAGAGAGAGACAUGAGGAUCACCCAUGUAGAAGGGCCGAGAG [salish99-ex2-09]   MS2 coat protein  apparent KD of MS2 coat protein           nM                  28.1
1  AAAUUGUCAGGAUAUCGUAGAAUAGUGAAAAACUAGAGCUACGAGAAGGGACAUGAGGAUCACCCAUGUAAAAC [May 92]   MS2 coat protein  apparent KD of MS2 coat protein           nM                  54.4
2  ACCUCACAUGAGGAUCACCCAUGUUAGGAUAUGCCCGGCAGGUUCUGACCUGCCUAAAGCAGAAGGAACGUGCG [Beusus]   MS2 coat protein  apparent KD of MS2 coat protein           nM                  57.9

Value lookup for apparent KD of MS2 coat protein; key = AAGAUGUGAGGAUAUGCUUGUCGUCACAAAAGUGAUGACGAGCAGAAGGCACAUGAGGAUCACCCAUGUAAAGA [Opal 26] 147

Suppose we examine the sequence AACUGACAUGAGGAUCACCCAUGUCAGGAUAUGCUUCAUAAAAUAAAAAUAAAAUGAUGCAGAAGGGACAUGAA [Design 27 :P Sub-opt 3] ; what apparent KD of MS2 coat protein value has been reported? 13.5

Report apparent KD of MS2 coat protein for AACAUGUAAGGAUAUGCUGCUCGUCACAAAAGUGAUGAGUAGCAGAAGGUACAUGAGGAUCACCCAUGUAAAGA [JL eternac mod 14] please. 111

Name the reported apparent KD of MS2 coat protein value associated with the sequence AAAGAGUCAGGAUAUUCGUAUAGAGUAGCGCGACUCUAUACGAAGAAGGGACAUGAGGAUCACCCAUGUAAAAA [Ecls4-I] 51.1

Any idea what apparent KD of MS2 coat protein was measured for AACAGUACAGGAUAUACAUGAGGAUCACCCAUGUGAAAUAAAAGUGGCGUACCACAAAGUAGAAGGGUACUGGA [Mat - Exclusion 3 - JL mod - D22] ? 119

Any idea what apparent KD of MS2 coat protein was measured for AAUAACAGAGGAUAUGCGAAAAUAAGCGGAAACGCAAAGGGACAUGAGGAUCACCCAUGUAGAAGGCUGGAUAA [Tetraloop... 61% 1] ? 29.5

Bench note: what apparent KD of MS2 coat protein did CUCAUGUGAGGAUAUCAGUAGUAAAAAAAAAAAAUUACUACUGAGAAGGCACAUGAGGAUCACCCAUGUACCUU [EX4 326: Super Stable 26] show? 42.6

Report apparent KD of MS2 coat protein for AAAAAAGGAGGAUAUACGAACAUGUCGAAAGACGUGAAGGGACAUGAGGAUCACCCAUGUAGAAGGUUUAAAAA [Mat - Exclusion 2 - JL mod - D85] please. 19.2

Could you share which apparent KD of MS2 coat protein value was measured for AACAGUACAGGAUAUACAUGAGGAUCACCCAUGUGAUAGGAAUAAAACAAAAAUAAAAGUAGAAGGGUACUGGA [Ruby 46] ? 145

Data request, read-out apparent KD of MS2 coat protein, for AGAAUACAUGAGGAUCACCCAUGUGAGGAUAUGUAGAUAAAAAUAAAAUAAAAUAAAUACAGAAGGCGCAAAAG [EX 1 May 20] 44.9

###

Test system: K4 kissing-loop RNA reporter;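 further: bound reporter read as fluorescence of individual clusters on recovered sequencing chips by microscopy, with normalized cluster intensities fitted with a binding model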
Test: apparent KD of K4 kissing-loop reporter; higher = weaker reporter binding
Conditions: Eterna round: R107; input ligand: FMN 200 uM
measured-parameter: apparent KD of K4 kissing-loop reporter (nM)
Give just the number in nM; leave the unit off.

Solved cases below.
monomer-sequence	quantitative-readout
GCCCGAAAGGGCCGAAGUGUUUGCGGCGAUCGAGGACCGGUACGGCCGCCACUCGUCGAGGCGUUCAGUGAUGUUGAAAGCAUGA	250
UGUACCGAGUCAGGAUAUGGCGUCGAAAGACGAAUUCUAGUGAUGUUAGGGAUCUGCGAAAGCAGUUCAGAAGGGACUUGGUACU [FmnBS 26 U36+U67]	243
ACUGCCAUUGCGGCCGCCACUAUCUCACUUUGCGAAUCUGCACCGACUGAGUGAUGUUCGGUAAAUAGGACCGGGCAAUGGGCCG [theeternabot_sameState_KL_Trp_B_26]	611
UGACUGGACUGAAGGAGCGCUAAACUCCUAGUGAUGUUAGGAAAUACGAGACAAAGUCUCGGGCAGGUAGGUCGCAGUCUAGUCU [ArgBS 19 #SwitchBubble #StaticStem]	122
AGGCACGAGCAAGGAUAUUGAGUAGAGUGAUGUUCUGCCUGGGUUGGCUCGCAAGAGCCUUCUCAGCGAGAAGGUGCUCGUGCCU [#2 Same State - FMN A Attempt #25 (HarryS)]	286

Read the next record carefully.
So what apparent KD of K4 kissing-loop reporter did GCGCGGGAGUGAUGUUCCAAGUGGUGUUAACGAGGACCGGUACGGCCGCCACUCGUUACGGCCGGGCCGUAGGAUACACUGGCGC [Same State - Tryptophan A (Freestyle 16)] get with K4 kissing-loop RNA reporter? 168
